pIC50: recorded values
- targetOrSystem: EGFR (human) (UniProt P00533)
- Sequence (P00533 whole entry, looked up): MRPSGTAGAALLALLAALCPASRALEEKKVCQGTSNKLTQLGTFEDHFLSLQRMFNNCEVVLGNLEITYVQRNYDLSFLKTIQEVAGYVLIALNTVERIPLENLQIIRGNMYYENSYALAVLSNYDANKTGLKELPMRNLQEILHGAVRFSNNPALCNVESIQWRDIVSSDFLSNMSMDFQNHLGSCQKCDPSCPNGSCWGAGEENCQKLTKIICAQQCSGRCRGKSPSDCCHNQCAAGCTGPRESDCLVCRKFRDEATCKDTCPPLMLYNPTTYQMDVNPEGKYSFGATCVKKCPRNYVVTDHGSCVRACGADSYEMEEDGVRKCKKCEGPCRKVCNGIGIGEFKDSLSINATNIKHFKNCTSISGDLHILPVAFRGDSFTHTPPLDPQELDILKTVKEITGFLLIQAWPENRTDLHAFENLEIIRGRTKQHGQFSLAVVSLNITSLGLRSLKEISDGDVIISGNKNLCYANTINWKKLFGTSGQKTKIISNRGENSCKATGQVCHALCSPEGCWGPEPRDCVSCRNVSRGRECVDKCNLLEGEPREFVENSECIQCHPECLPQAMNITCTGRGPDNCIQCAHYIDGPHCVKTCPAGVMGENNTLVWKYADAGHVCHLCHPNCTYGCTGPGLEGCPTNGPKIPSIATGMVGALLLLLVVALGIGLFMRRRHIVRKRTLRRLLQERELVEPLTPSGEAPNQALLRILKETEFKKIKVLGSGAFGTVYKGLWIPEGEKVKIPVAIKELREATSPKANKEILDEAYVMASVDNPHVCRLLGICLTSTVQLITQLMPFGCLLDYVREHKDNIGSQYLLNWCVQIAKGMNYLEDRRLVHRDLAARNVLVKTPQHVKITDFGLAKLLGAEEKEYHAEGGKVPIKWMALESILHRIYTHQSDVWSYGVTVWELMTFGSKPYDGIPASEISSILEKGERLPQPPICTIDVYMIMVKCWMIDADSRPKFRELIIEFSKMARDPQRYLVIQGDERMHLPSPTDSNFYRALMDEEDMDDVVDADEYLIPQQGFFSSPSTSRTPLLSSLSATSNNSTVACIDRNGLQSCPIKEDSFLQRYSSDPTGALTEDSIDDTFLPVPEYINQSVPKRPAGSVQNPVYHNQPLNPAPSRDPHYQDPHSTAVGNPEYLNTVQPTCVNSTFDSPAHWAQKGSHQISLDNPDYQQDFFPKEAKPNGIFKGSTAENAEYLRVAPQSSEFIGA
- measurementSetup: a431
pIC50: −log10 of the molar value.
reportedProperty: pIC50

[[record]]
itemsmiles = "C=CC(=O)N1CCC(Oc2cc3c(Nc4ccc(F)c(C)c4)ncnc3cc2OC)CC1"
recordednumber = 8.10

[[record]]
itemsmiles = "C=CC(=O)N1CC[C@H](Oc2cc3c(Nc4ccc(F)c(Cl)c4F)ncnc3cc2OC)C[C@H]1C(=O)NC"
recordednumber = 8.66

[[record]]
itemsmiles = "C=CC(=O)N1CCC(Oc2cc3c(Nc4ccc(O)c(F)c4)ncnc3cc2OC)CC1"
recordednumber = 6.89

[[record]]
itemsmiles = "C=CC(=O)N1CC[C@H](Oc2cc3c(Nc4ccc(F)c(Cl)c4F)ncnc3cc2OC)C[C@H]1C(=O)OC"
recordednumber = 8.30

[[record]]
itemsmiles = "CC#CC(=O)N1CC[C@H](Oc2cc3c(Nc4ccc(F)c(Cl)c4F)ncnc3cc2OC)C1"
recordednumber = 7.43

[[record]]
itemsmiles = "C=CC(=O)N1CCC(Oc2cc3c(Nc4ccc(OCc5cccc(F)c5)c(Cl)c4)ncnc3cc2OC)CC1"
recordednumber = 8.00

[[record]]
itemsmiles = "C=CC(=O)N1CC[C@H](Oc2cc3c(N[C@H](C)c4ccccc4)ncnc3cc2OC)C1"
recordednumber = 8.10

[[record]]
itemsmiles = "C=CC(=O)N1CC[C@@H](Oc2cc3c(Nc4ccc(F)c(Cl)c4F)ncnc3cc2OC)C[C@@H]1C(N)=O"
recordednumber = 9.10

[[record]]
itemsmiles = "C=CC(=O)N1CCC(Oc2cc3c(Nc4cc(Cl)c(O)c(Cl)c4)ncnc3cc2OC)CC1"
recordednumber = 6.75


----------
pIC50: recorded values
- targetOrSystem: EGFR (human) (UniProt P00533)
- measurementSetup: a431
pIC50: −log10 of the molar value.
reportedProperty: pIC50

[[record]]
itemsmiles = "C=CC(=O)N1CCC(Oc2cc3c(Nc4ccc(Br)c(C)c4)ncnc3cc2OC)CC1"
recordednumber = 8.22

[[record]]
itemsmiles = "C=C(C)C(=O)N1CC(Oc2cc3c(Nc4ccc(F)c(Cl)c4F)ncnc3cc2OC)C1"
recordednumber = 7.54

[[record]]
itemsmiles = "C=CC(=O)N1CC(Oc2cc3c(Nc4ccc(F)c(Cl)c4F)ncnc3cc2OCCOC)C1"
recordednumber = 6.05

[[record]]
itemsmiles = "C=CC(=O)N1CC[C@@H](Oc2cc3c(Nc4ccc(F)c(Cl)c4F)ncnc3cc2OC)C[C@@H]1C(=O)OC"
recordednumber = 9.15

[[record]]
itemsmiles = "C=CC(=O)N1CC[C@H](Oc2cc3c(Nc4cccc(Cl)c4F)ncnc3cc2OC)C1"
recordednumber = 6.27

[[record]]
itemsmiles = "C=C(CN(C)C)C(=O)N1CCC(Oc2cc3c(Nc4ccc(Cl)c(Cl)c4F)ncnc3cc2OC)CC1"
recordednumber = 8.40

[[record]]
itemsmiles = "C=CC(=O)N1CC(Oc2cc3c(Nc4ccc(F)c(Cl)c4F)ncnc3cc2O)C1"
recordednumber = 6.42

[[record]]
itemsmiles = "C=CC(=O)N1CCC(Oc2cc3c(Nc4cccc(CCl)c4)ncnc3cc2OC)CC1"
recordednumber = 7.59

[[record]]
itemsmiles = "COc1cc2ncnc(Nc3ccc(F)c(Cl)c3F)c2cc1OC1CN(C(=O)/C=C\\CN(C)C)C1"
recordednumber = 7.82

[[record]]
itemsmiles = "C=CC(=O)N1CCC(Oc2cc3c(Nc4cccc(C#N)c4)ncnc3cc2OC)CC1"
recordednumber = 8.43

[[record]]
itemsmiles = "C=CC(=O)N1CC[C@@H](Oc2cc3c(Nc4ccc(Cl)c(Cl)c4F)ncnc3cc2OC)C[C@@H]1C(N)=O"
recordednumber = 9.10

[[record]]
itemsmiles = "C=CC(=O)N1CC(Oc2cc3c(N[C@H](C)c4ccccc4)ncnc3cc2OC)C1"
recordednumber = 8.15

[[record]]
itemsmiles = "C=CC(=O)N1CC(Oc2cc3c(Nc4ccc(F)c(Cl)c4F)ncnc3cc2OC)C1"
recordednumber = 9.52

[[record]]
itemsmiles = "COc1cc2ncnc(Nc3ccc(F)c(Cl)c3F)c2cc1OC1CN(C(=O)/C=C/CN(C)C)C1"
recordednumber = 7.44

[[record]]
itemsmiles = "C=CC(=O)N1CCC(Oc2cc3c(NCc4cccc(Cl)c4)ncnc3cc2OC)CC1"
recordednumber = 7.21

[[record]]
itemsmiles = "C=CC(=O)N1CC[C@H](Oc2cc3c(Nc4ccc(F)c(Cl)c4F)ncnc3cc2OC)C[C@H]1C(=O)NO"
recordednumber = 8.00

[[record]]
itemsmiles = "C=C(NC(C)=O)C(=O)N1CC(Oc2cc3c(Nc4ccc(F)c(Cl)c4F)ncnc3cc2OC)C1"
recordednumber = 8.51

[[record]]
itemsmiles = "COc1cc2ncnc(Nc3ccc(Cl)c(Cl)c3F)c2cc1OC1CCN(C(=O)/C=C/CN(C)C)CC1"
recordednumber = 6.78

[[record]]
itemsmiles = "C=CC(=O)N1CCC(Oc2cc3c(Nc4ccc(O)cc4Cl)ncnc3cc2OC)CC1"
recordednumber = 6.75


----------
- targetOrSystem: EGFR (human), P00533 [Antiproliferation of H195 Cells Having Overexpressed EGFR T790 Mutant Kinase]
- Sequence (P00533 whole entry, looked up, change not shown): as the sequence (P00533 whole entry, looked up) above
Binning rule for recorded IC50: low end = under 5 nM, middle = from 5 nM up to 40 nM, high end = 40 nM and over

[[record]]
itemsmiles = "C=CC(=O)N1CC(Oc2cc3c(Nc4cccc(Cl)c4F)ncnc3cc2OC)C1"
classification = "middle"

[[record]]
itemsmiles = "C=CC(=O)N1CC[C@@H](Oc2cc3c(Nc4ccc(Cl)c(Cl)c4F)ncnc3cc2OC)C[C@@H]1C(N)=O"
classification = "low end"

[[record]]
itemsmiles = "C=CC(=O)N1CC(Oc2cc3c(Nc4cccc(Cl)c4)ncnc3cc2OC)C1"
classification = "middle"

[[record]]
itemsmiles = "C=CC(=O)N1CC[C@@H](Oc2cc3c(Nc4ccc(F)c(Cl)c4F)ncnc3cc2OC)C[C@@H]1C(=O)NC"
classification = "low end"

[[record]]
itemsmiles = "C=CC(=O)N1CC[C@@H](Oc2cc3c(Nc4ccc(F)c(Cl)c4F)ncnc3cc2OC)C[C@@H]1C(=O)OC"
classification = "middle"

[[record]]
itemsmiles = "C=CC(=O)N1CC[C@H](Oc2cc3c(N[C@H](C)c4ccccc4)ncnc3cc2OC)C1"
classification = "high end"

[[record]]
itemsmiles = "COc1cc2ncnc(Nc3ccc(F)c(Cl)c3F)c2cc1OC1CN(C(=O)/C=C\\Cl)C1"
classification = "middle"

[[record]]
itemsmiles = "C=CC(=O)N1CCC(Oc2cc3c(Nc4ccc(F)c(Cl)c4F)ncnc3cc2OCCOC)CC1"
classification = "high end"


----------
log10 IC50: recorded values
- targetOrSystem: UniProt P00533
- measurementSetup: a431
reportedProperty: log10 IC50 (log10 of the value in nM)

[[record]]
itemsmiles = "C=CC(=O)N1CC[C@@H](Oc2cc3c(Nc4ccc(F)c(Cl)c4F)ncnc3cc2OC)C[C@@H]1C(=O)NCCS(C)(=O)=O"
recordednumber = 0.38

[[record]]
itemsmiles = "C/C=C/C(=O)N1CC[C@H](Oc2cc3c(Nc4ccc(F)c(Cl)c4F)ncnc3cc2OC)C1"
recordednumber = 1.93

[[record]]
itemsmiles = "C=C(CN1CCN(C)CC1)C(=O)N1CC(Oc2cc3c(Nc4ccc(F)c(Cl)c4F)ncnc3cc2OC)C1"
recordednumber = 0.00

[[record]]
itemsmiles = "C=CC(=O)N1CC[C@H](Oc2cc3c(Nc4ccc(F)c(Cl)c4F)ncnc3cc2OC)C[C@H]1C(=O)NCCN1CCOCC1"
recordednumber = 0.92

[[record]]
itemsmiles = "C=CC(=O)N1CCC(Oc2cc3c(Nc4ccc(O)c(Cl)c4)ncnc3cc2OC)CC1"
recordednumber = 2.04

[[record]]
itemsmiles = "C=C(CN1CCOCC1)C(=O)N1CC(Oc2cc3c(Nc4ccc(F)c(Cl)c4F)ncnc3cc2OC)C1"
recordednumber = 0.18

[[record]]
itemsmiles = "C=CC(=O)N1CCC(Oc2cc3c(Nc4cccc(Cl)c4F)ncnc3cc2OC)CC1"
recordednumber = 0.30

[[record]]
itemsmiles = "C=CC(=O)N1CCC(Oc2cc3c(Nc4cccc(Br)c4)ncnc3cc2OC)CC1"
recordednumber = 0.00

[[record]]
itemsmiles = "C=CC(=O)N1CCC(Oc2cc3c(Nc4cccc(C=C)c4)ncnc3cc2OC)CC1"
recordednumber = 0.28

[[record]]
itemsmiles = "C=CC(=O)N1CC[C@H](Oc2ccc3ncnc(Nc4ccc(OCc5cccc(F)c5)c(Cl)c4)c3c2)C1"
recordednumber = 1.18

[[record]]
itemsmiles = "COc1cc2ncnc(Nc3ccc(F)c(Cl)c3F)c2cc1OC1CCN(C(=O)/C=C\\C(=O)O)CC1"
recordednumber = 1.61

[[record]]
itemsmiles = "C=CC(=O)N1CCC(Oc2cc3c(Nc4ccccc4Cl)ncnc3cc2OC)CC1"
recordednumber = 1.81

[[record]]
itemsmiles = "C=CC(=O)N1CCC(Oc2cc3c(Nc4ccc(Cl)cc4O)ncnc3cc2OC)CC1"
recordednumber = 1.51

[[record]]
itemsmiles = "COc1cc2ncnc(Nc3ccc(F)c(Cl)c3F)c2cc1OCCNC(=O)/C=C/CN(C)C"
recordednumber = 1.26

[[record]]
itemsmiles = "C=CC(=O)N1CC[C@H](Oc2cc3c(Nc4ccc(F)c(Cl)c4F)ncnc3cc2OC)C[C@H]1C(=O)NCCS(C)(=O)=O"
recordednumber = 0.34

[[record]]
itemsmiles = "C=C(CN1CCCCC1)C(=O)N1CC(Oc2cc3c(Nc4cccc(Cl)c4F)ncnc3cc2OC)C1"
recordednumber = 0.38

[[record]]
itemsmiles = "C=CC(=O)N1CC[C@H](Oc2ccc3ncnc(Nc4ccc(F)c(Cl)c4F)c3c2)C1"
recordednumber = 0.70

[[record]]
itemsmiles = "C=CC(=O)N1CC[C@H](Oc2cc3c(Nc4ccc(Br)cc4F)ncnc3cc2OC)C1"
recordednumber = 1.18

